melting point reference

// solved cases for melting point follow
molecule	quantityName	observedResult
CCOC(=O)C(=CNC1CC1)C(=O)c1c(F)c(OC(F)F)c(F)c(F)c1[N+](=O)[O-]	melting point	105 to 106 °C
CSc1nc(NCc2ccc(-c3ccccn3)cc2)n2ncc(C(C)C)c2n1	melting point	136 to 138 °C
COC(=O)c1ccc(-c2nnc(-c3cccc(NS(=O)(=O)c4ccc(C)cc4)c3)o2)cc1	melting point	227 to 228 °C
Cc1cccc2[nH]c(Cl)nc12	melting point	138 to 140 °C
COC(=O)c1cccc(CBr)c1[N+](=O)[O-]	melting point	91 to 95 °C

What measured melting point goes with `O=C(O)Cn1c(=O)c(=O)[nH]c2ccc3ccc(-n4cccc4CNC(=O)c4ccccc4)cc3c21` ? > 180 °C

====

quantityName: melting point

molecule	observedResult
O=C1C=CC(=O)N1CO	96.5 to 97 °C

Return reported melting point; argument: `CCCCn1c(=O)c2c(ncn2S(=O)(=O)CCCCl)n(CCCC)c1=O` 71 to 73 °C

Now try `O=C(O)COc1cc(F)c(-c2ccccc2)cc1C(=S)NCc1cccc([N+](=O)[O-])c1` . 177 to 179 °C

Next molecule up: `ON=C(Cc1ccc(Cl)cc1)c1ccc(Cl)cc1Cl` 91 °C

Next entry: O=C(O)c1ccn2c1C(c1cccnc1)CC2 (stereo unspecified) 210 °C

Same read-out for `CCOC(=O)CC(=O)Nc1nc(C)cs1` ? 138 to 141 °C

And the next one, `O=C(N[C@H]1CSc2ccc(C(F)(F)F)cc2NC1=O)OCc1ccccc1` ? 120 to 123 °C

Here is the next molecule: `FCc1cccc(C#CCCn2nc3cc(F)c(F)cc3n2)n1` 104 to 105 °C

Similarly, CC(c1ccc2c(c1)[nH]c1ccccc12)n1ccnc1 (stereo unspecified) ? 157 to 158 °C

Param item: CC(O)(C1CCC(Oc2ncnc3ccccc23)CC1)C(F)(F)F (stereo unspecified) 159 to 160 °C

Moving on to `Oc1ccc(C(c2ccc(O)cc2)(c2ccc(I)cc2)C(F)(F)F)cc1` 187 to 189 °C

====

Catalogue of melting point readings, one per entry.

compound	melting point
Nc1ccc(S(=O)(=O)N2CCCC(c3ccc(Cl)c(Cl)c3)=N2)cc1	232 to 234 °C
Oc1ccc2c(c1)Cc1cc(Br)ccc1-2	183 to 184 °C

Give the measured melting point of CCCC(=O)OC1c2ccccc2C(=O)N1c1ccc2ccc(Cl)nc2n1 (stereo not given) . 140 °C

Would you mind doing `CCCCNC(=O)[C@@H]1CCCN1C(=O)OCc1ccccc1` as well? 88 to 90 °C

Also check `O=C(/C=C/c1ccn(S(=O)(=O)c2ccc(-n3cccn3)cc2)c1)NO` 161 to 167 °C

// repeat for `COc1cc2nc(N)nc(-c3ccccc3OC(F)(F)F)c2cc1OC` and report 235 to 237 °C

Next: O=CN(O)C1(CS(=O)(=O)c2ccc(Oc3ccc(OC(F)(F)F)cc3)cc2)CCC(C(=O)O)CC1 (stereo not given) 207 °C

Now consider `CCCCCCCCCCSc1ccc2c3c(cccc13)C(=O)N(CC(=O)O)C2=O` and answer again. 137 to 140 °C

====

quantityName: melting point

What melting point value was documented for this compound, CC(C#N)c1ccc(O)cc1 (stereo unspecified) ? 41 to 46 °C

Ok, now `O=C(O)COc1ccc2c(c1)-c1nc(SC(c3ccccc3)c3ccccc3)sc1CC2` 141 to 143 °C

Please do the same for O=C1Nc2cccnc2N(C(=O)NCCN2CCCCC2CN2CCCC2)c2ccccc21 (stereo unspecified) as well. 198 °C

Repeat for the following compound: `O=Cc1cc(O)c(O)c(C=O)c1` 192 to 195 °C

Please give the result for CC(C)Nc1cccnc1N1CCN(C(=O)c2ccc(C(=O)NCC3CCCO3)cn2)CC1 (stereo unspecified) too. 108 to 110 °C

Proceed to `COc1cccc2c1N(CCCO)Cn1cc(CO)cc1-2` 116 to 118 °C

Try `CCC1=Cc2cc3c(cc2C(c2ccc([N+](=O)[O-])cc2)=NN1C(C)=O)OCO3` next. 132 to 134 °C

One more compound: CC1CC2C(=CCC3(C)C2CCC3(O)C(=O)CO)C2(C)C=CC(=O)C=C12 (stereo unspecified) 204 to 206 °C

Repeat for the following compound: `Cn1nnnc1-c1cccc(CCl)c1` 63 to 65 °C

Would you kindly repeat that for CNC1C(O)CC2C3CCc4cc(OC(=O)C(C)(C)C)ccc4C3CCC21C (stereo unspecified) ? 196 to 199 °C

Now give it for `Cc1ccc2nc3cc(C)c(=O)cc-3sc2c1` too. 177 °C

Also need `Cc1ccc2nc(-c3ccc4nc(N)sc4c3)sc2c1` , thanks. 250 to 251 °C

And for `O=c1[nH]c2cccnc2n1-c1ccncc1` ? 265 to 267 °C

Cool, now `Oc1cc(-c2ccccc2)cc(-c2ccccc2)c1` 97 °C
